Test: MRP1 drug-resistance reversers in H69AR cells – cell-based, doxorubicin co-treatment, pilot screen (AID 601)
Conditions: H69AR cells, CellTiter-Glo, 72 h; compound alone cytotoxicity; at 10 µM

{"Molecule": "O=C1CC(c2ccccc2)CC(O)=C1C=NCCN1CCN(C(=O)Cc2ccccc2)CC1 (centres undefined)", "viability (%)": 92.1}
{"Molecule": "CC(=O)N1CC(=O)Nc2ccc(Cl)cc2C1c1ccc(F)cc1 (centres undefined)", "viability (%)": 97.5}
{"Molecule": "Cc1nn(Cc2ccccc2Cl)c(Cl)c1C(=O)OCC(=O)NCc1ccco1", "viability (%)": 85.6}
{"Molecule": "CC1CCC(C(=O)NC(C(=O)N2CCC3(CC2)OCCO3)C(C)C)CC1 (centres undefined)", "viability (%)": 99.5}
{"Molecule": "COc1ccccc1OCCCn1cc(C(=O)c2ccco2)c2ccccc21", "viability (%)": 77.5}
{"Molecule": "C=CCOC(=O)COc1cc(C)cc2oc(=O)c3c(c12)CCC3", "viability (%)": 84.4}
{"Molecule": "COc1ccc(CN2CCN(C(=O)Cc3ccccc3)CC2)c(OC)c1", "viability (%)": 97.3}
{"Molecule": "CC(=NCc1ccc2c(c1)OCO2)c1c(O)n(C)c(=O)n(C)c1=O", "viability (%)": 98}
{"Molecule": "O=C(C1CCCN(S(=O)(=O)c2cccc3nsnc23)C1)N1CCC2(CC1)OCCO2 (centres undefined)", "viability (%)": 81.6}

----------
Target: Pantothenate synthetase (Mycobacterium tuberculosis (strain ATCC 25618 / H37Rv))
Test: Coupled enzyme confirmation of inhibitors against recombinant Mtb PanC (AID 375);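 further: 0% = full reaction with vehicle and 100% = no enzyme background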
Conditions: coupled enzyme assay; at 10 µM, stronger effect = higher value
Listed next: entries and their corresponding inhibition.
Parameter Measured: inhibition (%)

{"Compound": "Cc1nnc2n(-c3ccccc3)c(=O)c3c4c(sc3n12)CCCC4", "Value": 2}
{"Compound": "CCOC(=O)c1ccc(COC(=O)CCc2nc3ccccc3[nH]c2=O)o1", "Value": 0}
{"Compound": "CCN(CC)c1ccc2c(c1)C(=O)N(C)C2=O", "Value": 7}
{"Compound": "CC(NS(=O)(=O)c1ccc(OCC(=O)N2CCOCC2)c(Cl)c1)c1ccccc1 (stereo unspecified)", "Value": 1}
{"Compound": "O=c1c2c3c(sc2nc2sc(C4CC4)nn12)CCCC3", "Value": 0}
{"Compound": "O=c1cc(-c2ccco2)oc2ccc(Cl)cc12", "Value": 1}
{"Compound": "Cc1ccc(C)c(S(=O)(=O)NCc2ccc(C(=O)N3CCN(C)CC3)cc2)c1", "Value": 0}
{"Compound": "CCC1(C)Cc2c(C#N)c(N)n(-c3ccccc3)c(=O)c2CO1 (stereo unspecified)", "Value": 0}
{"Compound": "CCOC(=O)N1CCN(CC(=O)Nc2c(C(=O)OC)[nH]c3cccc(Cl)c23)CC1", "Value": 0}
{"Compound": "O=C(CSc1nnc(-c2ccco2)n1CC1CCCO1)NC1CCCC1 (stereo unspecified)", "Value": 0}
{"Compound": "COC(=O)CC1C(=O)NCCN1C(=O)NC1CCCCC1 (stereo unspecified)", "Value": 1}
{"Compound": "Cn1c(=O)c2c(nc3sccn32)n(C)c1=O", "Value": 0}
{"Compound": "Cc1sc2c(c1C)CN(C1CC(C)(C)NC(C)(C)C1)CN2C(=O)c1ccco1", "Value": 7}
{"Compound": "Cc1ccc(-c2nnc(SCC(=O)N3CC(C)CC(C)C3)o2)cc1C (stereo unspecified)", "Value": 0}
{"Compound": "CCn1c(SCC(=O)Nc2ccc(C(C)=O)cc2)nc2ccccc21", "Value": 3}
{"Compound": "C[C@H]1C[C@H]2[C@@H]3CCC4=CC(=O)C=C[C@]4(C)[C@@]3(Cl)[C@@H](O)C[C@]2(C)[C@@]1(O)C(=O)CO", "Value": 4}
{"Compound": "O=C(NCc1ccccc1)N[C@@H](Cc1ccccc1)C(=O)O", "Value": 1}
{"Compound": "CCN(CC)CCCN1C(=O)C(=O)/C(=C(/O)c2ccc(C)cc2)C1c1ccccn1 (stereo unspecified)", "Value": 3}
{"Compound": "COc1ccc(NC(C)=O)cc1NC(=O)CN1CCN(c2ccccn2)CC1", "Value": 0}
{"Compound": "Cc1noc(COc2ccccc2OCC(O)CNC(C)(C)C)n1 (stereo unspecified)", "Value": 4}
{"Compound": "C[C@]12C[C@H](O)[C@H]3[C@@H](CCC4=CC(=O)CC[C@@]43C)[C@@H]1CC[C@@H]2C(=O)CO", "Value": 0}
{"Compound": "CCOc1ccc(-c2cc(C(=O)N3CCN(c4ccccn4)CC3)c3ccccc3n2)cc1", "Value": 2}
{"Compound": "Cc1nc2oc3c(NCc4ccccn4)ncnc3c2c2c1COC(C)(C)C2", "Value": 0}
{"Compound": "O=C(NCCCn1ccnc1)c1csc2ccccc12", "Value": 7}
{"Compound": "CCNC(=O)Cn1cnc2c1c(=O)n(C)c(=O)n2C", "Value": 0}
{"Compound": "CCCNC(=O)Nc1ccccc1C(=O)Nc1ccc(OC)cc1", "Value": 2}
{"Compound": "O=C(COc1ccc(=O)n(-c2ccccc2)n1)Nc1ccccc1", "Value": 0}
{"Compound": "COc1cc(OC)c(NC(=O)c2ccco2)cc1Cl", "Value": 0}
{"Compound": "COC(=O)CN1C(=O)C2(C(C#N)=C(N)Oc3c2c(C)nn3-c2ccccc2)c2ccccc21 (stereo unspecified)", "Value": 3}
{"Compound": "COc1cc(-c2nc(-c3ccncc3)no2)cc(OC)c1OC", "Value": 2}
{"Compound": "O=C(CN1CCC(n2nnc3cc(F)ccc32)CC1)Nc1ccc2c(c1)CCC2", "Value": 0}
